- test system: human α7 nicotinic acetylcholine receptor (HEK cell line stably expressing human RIC-3 and human α7) (Homo sapiens, UniProt P36544)
- Construct: host or cells: HEK cell line (PrecisION hnAChR α7/RIC-3)
- Sequence (P36544 23-502): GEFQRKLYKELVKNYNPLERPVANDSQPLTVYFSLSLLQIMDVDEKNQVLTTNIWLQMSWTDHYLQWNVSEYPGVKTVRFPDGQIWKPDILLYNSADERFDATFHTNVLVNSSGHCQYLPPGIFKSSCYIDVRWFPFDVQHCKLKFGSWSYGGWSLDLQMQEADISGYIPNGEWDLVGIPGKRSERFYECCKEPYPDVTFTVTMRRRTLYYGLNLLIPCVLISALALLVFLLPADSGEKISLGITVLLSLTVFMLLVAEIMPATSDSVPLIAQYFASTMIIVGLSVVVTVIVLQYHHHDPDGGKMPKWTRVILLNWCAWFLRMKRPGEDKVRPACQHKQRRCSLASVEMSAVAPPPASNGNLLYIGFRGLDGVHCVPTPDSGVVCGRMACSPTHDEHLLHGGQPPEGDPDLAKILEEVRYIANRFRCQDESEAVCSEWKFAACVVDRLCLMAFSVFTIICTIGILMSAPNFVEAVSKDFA
- procedure details: Automated patch-clamp electrophysiology functional assay (Assay A), IonFlux HT, whole-cell population patch
- Type: cell-based
- run parameters: automated patch-clamp electrophysiology functional assay (Assay A); read-out: α7 nAChR EC50
pEC50: −log10 of the molar value.
measurement name: pEC50

>>> readout_value("NS(=O)(=O)N1CCC2(CC2c2nc(-c3conc3C3CC3)no2)C(F)C1 (single isomer, unassigned) [Example I6]")
6.08
>>> readout_value("NS(=O)(=O)N1CCC2(CC1)C[C@H]2c1nc(-c2ccccc2)co1 [Example G1]")
5.40

1 = CCc1ncoc1-c1nc([C@@H]2CC23CCN(S(N)(=O)=O)CC3)no1 [Example E24]
2 = NS(=O)(=O)N1CCC2(CC1)CC2c1nc(-c2conc2C2CC2)no1 (centres unmarked) [Example C4]
Quick one: lower pEC50, 1 or 2 ? Label of pick, please.
1
(1: 5.44, 2: 5.96)

----------
# pEC50 values compiled below
- test system: human α7 nicotinic acetylcholine receptor (HEK cell line stably expressing human RIC-3 and human α7) (Homo sapiens)
- Construct: host or cells: HEK cell line (PrecisION hnAChR α7/RIC-3)
- procedure details: Automated patch-clamp electrophysiology functional assay (Assay A), IonFlux HT, whole-cell population patch
- Assay type: cell-based
- run parameters: HEK cells expressing human α7/RIC-3; test compound with or without 40 μM acetylcholine; holding potential −60 mV; room temperature; read-out: α7 nAChR Potency
pEC50: −log10 of the molar value.

>>> readout_value("Cc1ccc(C)c(-c2nc(C3C(F)(F)C34CCN(S(N)(=O)=O)C(C)C4)no2)c1 (mixture of isomers) [Example K2]")
"6.30 to 7.00"
>>> readout_value("NS(=O)(=O)N1CCC2(CC1)[C@H](c1nc(-c3ccc(F)cc3C(F)(F)F)co1)C2(F)F [Example G10]")
"> 7.00"
>>> readout_value("Cc1ccccc1-c1nnc([C@H]2C(F)(F)C23CCN(S(N)(=O)=O)CC3)s1 [Example H6]")
"5.30 to 6.30"
>>> readout_value("N#Cc1ccccc1-c1nc([C@@H]2CC23CCN(S(N)(=O)=O)CC3)no1 [Example D3]")
"4.30 to 5.30"
>>> readout_value("Cc1ccc(C)c(-c2noc([C@@H]3C(F)(F)C34CCN(S(C)(=O)=O)CC4)n2)c1 (stereo in doubt) [Example 32]")
"5.30 to 6.30"
>>> readout_value("NS(=O)(=O)N1CCC2(CC1)C(c1nc(-c3c(C(F)(F)F)noc3C3CC3)no1)C2(F)F (centres unmarked) [Example C16]")
"> 7.00"

// returns reported pEC50 for input N#CC1(c2ccccc2-c2nc([C@@H]3CC34CCN(S(N)(=O)=O)CC4)no2)CC1 [Example E75]
4.30 to 5.30

Note, next up: NS(=O)(=O)N1CCC2(CC1)C[C@H]2c1noc(-c2cccc(-c3ccc(F)cc3)c2)n1 [Example E74]
6.30 to 7.00

----------
- test system: human α7 nicotinic acetylcholine receptor (HEK cell line stably expressing human RIC-3 and human α7) (Homo sapiens)
- Construct: host or cells: HEK cell line (PrecisION hnAChR α7/RIC-3)
- procedure details: Automated patch-clamp electrophysiology functional assay (Assay A), IonFlux HT, whole-cell population patch
- Type: cell-based
- run parameters: automated patch-clamp electrophysiology functional assay (Assay A); read-out: α7 nAChR EC50
measurement name: EC50 (nM)

>>> readout_value("Cn1nccc1-c1nc([C@@H]2C(F)(F)C23CCN(S(N)(=O)=O)CC3)no1")
500
>>> readout_value("NS(=O)(=O)N1CCC2(CC1)C(c1nc(-c3ccc(F)cc3C(F)(F)F)no1)C2(Cl)Cl (racemic)")
2700
>>> readout_value("NS(=O)(=O)N1CCC2(CC1)C[C@H]2c1nnc(-c2ccccc2OCC(F)(F)F)o1")
590
>>> readout_value("NS(=O)(=O)N1CCC2(CC1)[C@H](c1noc(-c3cccnc3)n1)C2(F)F")
2600

I = COc1ccc(Cl)cc1-c1noc(C2CC23CCN(S(=O)(=O)c2ccc4ncsc4c2)CC3)n1 (racemic)
II = NS(=O)(=O)N1CCC2(CC1)C[C@H]2c1noc(-c2cccc(C(F)(F)F)c2)n1 [Example D1]
III = Cc1onc(-c2nc([C@@H]3CC34CCN(S(N)(=O)=O)CC4)no2)c1C
IV = NS(=O)(=O)N1CCC2(CC1)[C@H](c1noc(-c3cnn4c3CSCC4)n1)C2(F)F
Rank items: key EC50, increasing. Output spec: labels arranged per the requested ranking.
II, IV, III, I
(II: 520 nM, IV: 800 nM, III: 1300 nM, I: 3300 nM)

----------
- test system: human α7 nicotinic acetylcholine receptor (HEK cell line stably expressing human RIC-3 and human α7) (Homo sapiens, UniProt P36544)
- Construct: host or cells: HEK cell line (PrecisION hnAChR α7/RIC-3)
- procedure details: Automated patch-clamp electrophysiology functional assay (Assay A), IonFlux HT, whole-cell population patch
- Type: cell-based
- run parameters: automated patch-clamp electrophysiology functional assay (Assay A); read-out: α7 nAChR EC50
pEC50: −log10 of the molar value.
measurement name: pEC50

>>> readout_value("Cn1nc2c(c1-c1nc([C@@H]3C(F)(F)C34CCN(S(N)(=O)=O)CC4)no1)CCC2")
7.01

I = NS(=O)(=O)N1CCC2(CC1)[C@H](c1noc(-c3ccnnc3C3CC3)n1)C2(F)F
II = Cc1ccc(C)c(-c2nc([C@@H]3C(F)(F)C34CCN(S(N)(=O)=O)CC4)no2)c1
III = Cn1nc2c(c1-c1nc([C@@H]3C(F)(F)C34CCN(S(N)(=O)=O)CC4)no1)CCCC2
Parameters: sort_field (pEC50), sort_dir (desc). Output spec: labels arranged per the requested ranking.
II, III, I

----------
- test system: human α7 nicotinic acetylcholine receptor (HEK cell line stably expressing human RIC-3 and human α7) (Homo sapiens, UniProt P36544)
- Construct: host or cells: HEK cell line (PrecisION hnAChR α7/RIC-3)
- procedure details: Automated patch-clamp electrophysiology functional assay (Assay A), IonFlux HT, whole-cell population patch
- Format: cell-based
- run parameters: HEK cells expressing human α7/RIC-3; test compound with or without 40 μM acetylcholine; holding potential −60 mV; room temperature; read-out: α7 nAChR Potency
# EC50 values compiled below

Solved entries (count: 5):
>>> readout_value("NS(=O)(=O)N1CCC2(CC1)C[C@H]2c1noc(-c2cccc(-n3nccc3C(F)(F)F)c2)n1 [Example E70]")
"500 to 5000 nM"
>>> readout_value("Cc1cccc(C)c1Cc1nc([C@@H]2CC23CCN(S(N)(=O)=O)CC3)no1 [Example E6]")
"500 to 5000 nM"
>>> readout_value("NS(=O)(=O)N1CCC2(CC1)[C@H](c1noc(-c3c(C4CC4)noc3C(F)(F)F)n1)C2(F)F [Example E55]")
"< 100 nM"
>>> readout_value("Cn1cc(-c2nc([C@@H]3C(F)(F)C34CCN(S(N)(=O)=O)CC4)no2)c(C(F)(F)F)n1 [Example 19]")
"100 to 500 nM"
>>> readout_value("NS(=O)(=O)N1CCC2(C(F)C1)C(c1nc(-c3conc3C3CC3)no1)C2(F)F (single isomer, unassigned) [Example I13]")
"500 to 5000 nM"

// returns reported EC50 for input NS(=O)(=O)N1CCC2(CC1)C[C@H]2c1noc(-c2ccccc2OCC(F)(F)F)n1 [Example D18]
100 to 500 nM

Note, next up: NS(=O)(=O)N1CCC2(CC1)[C@H](c1coc(-c3conc3C3CC3)n1)C2(F)F [Example 31]
100 to 500 nM

----------
- test system: human α7 nicotinic acetylcholine receptor (HEK cell line stably expressing human RIC-3 and human α7) (Homo sapiens, UniProt P36544)
- Construct: host or cells: HEK cell line (PrecisION hnAChR α7/RIC-3)
- procedure details: Automated patch-clamp electrophysiology functional assay (Assay A), IonFlux HT, whole-cell population patch
- Type: cell-based
- run parameters: automated patch-clamp electrophysiology functional assay (Assay A); read-out: α7 nAChR EC50
- Experimental: The α7 nAChR positive allosteric modulator (PAM) activity of the present compounds may be tested using assays known in the art. […] The assay was performed using the IonFlux HT in a whole-cell, population patch configuration. See Golden et al. Assay Drug Dev. Technol. […] The compounds were assessed for their ability to modulate the function of the human 7 nAChR stably expressed in a HEK cell line both in the presence, and in the absence of the natural 7 agonist acetylcholine. […]
pEC50: −log10 of the molar value.
measurement name: pEC50

>>> readout_value("NS(=O)(=O)N1CCC2(CC1)C[C@H]2c1noc(-c2ccn(CC(F)(F)F)n2)n1")
5.66
>>> readout_value("NS(=O)(=O)N1CCC2(CC1)C[C@H]2c1noc(-c2conc2C2CC2)n1")
6.24
>>> readout_value("NS(=O)(=O)N1CCC2(CC1)C[C@H]2c1noc(-c2cc(F)ccc2OC(F)(F)F)n1")
6.62

P = NS(=O)(=O)N1CCC2(CC1)C[C@H]2c1cnn(-c2cccc(OC(F)(F)F)c2)c1
Q = NS(=O)(=O)N1CCC2(C(F)C1)C(c1nc(-c3ccc(F)cc3C(F)(F)F)no1)C2(F)F (stereo not shown) [Example I16]
Lab note: check whether P or Q shows the higher recorded pEC50. Label of pick, please.
P
(P: 6.48, Q: 5.68)

P = NS(=O)(=O)N1CCC2(CC1)C[C@H]2c1nnc(-c2cc(F)ccc2F)s1
Q = NS(=O)(=O)N1CCC2(CC1)C[C@H]2c1noc(Cc2ccc(F)cc2C(F)(F)F)n1
R = NS(=O)(=O)N1CCC2(CC1)[C@H](c1noc(-c3conc3C(F)(F)F)n1)C2(F)F
S = NS(=O)(=O)N1CCC2(CC1)C(c1nc(-c3ccnn3C3CC3)no1)C2(F)F (stereo not shown)
Rank items: key pEC50, increasing. Output spec: labels arranged per the requested ranking.
Q, P, R, S
(Q: 5.43, P: 5.96, R: 6.17, S: 6.82)

I = NS(=O)(=O)N1CCC2(CC1)C[C@H]2c1noc(-c2ccc(C(F)(F)F)cc2OC(F)F)n1
II = NS(=O)(=O)N1CCC2(CC1)C[C@H]2c1noc(C2CC3(CCC3)C2)n1
Lab note: check whether I or II shows the higher recorded pEC50. Label of pick, please.
I

1 = COc1ccc(Cl)cc1-c1noc(C2CC23CCN(C(=O)NCc2ccccc2)CC3)n1 (racemic)
2 = NS(=O)(=O)N1CCC2(CC1)C[C@H]2c1nnc(-c2cccc(OC(F)(F)F)c2)o1
3 = CC(C)(O)c1ccc(-c2nc([C@@H]3CC34CCN(S(N)(=O)=O)CC4)no2)cc1
Rank items: key pEC50, increasing. Output spec: labels arranged per the requested ranking.
1, 3, 2
(1: 5.29, 3: 5.85, 2: 6.15)

Ref: patent US11332463B2
